- Target Entity: muscarinic receptors, heart (M2) (Rattus norvegicus, UniProt P10980)
- Sequence (P10980 1-466): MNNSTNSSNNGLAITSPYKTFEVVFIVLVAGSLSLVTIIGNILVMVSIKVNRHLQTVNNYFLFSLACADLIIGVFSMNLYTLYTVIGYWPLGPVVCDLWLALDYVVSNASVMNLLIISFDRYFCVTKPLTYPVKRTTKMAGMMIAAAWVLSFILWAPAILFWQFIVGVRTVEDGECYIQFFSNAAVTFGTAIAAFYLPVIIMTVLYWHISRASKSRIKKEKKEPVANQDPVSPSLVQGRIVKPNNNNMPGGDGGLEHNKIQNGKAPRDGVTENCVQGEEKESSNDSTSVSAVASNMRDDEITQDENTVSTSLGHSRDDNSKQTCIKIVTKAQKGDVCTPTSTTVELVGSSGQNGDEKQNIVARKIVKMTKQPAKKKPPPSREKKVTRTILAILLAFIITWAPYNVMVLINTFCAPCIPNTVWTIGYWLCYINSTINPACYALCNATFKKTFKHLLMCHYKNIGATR
Outcome Measure: IC50 (nM)
Respond with the bare value in nM.

Quick one: give measured IC50 for CN1CCC(NC(=O)C2c3ccccc3NC(=O)c3ccccc32)CC1 (single isomer, unassigned; (+)) [Substance D] 300

Quick one: give measured IC50 for CN1CCN(CC(=O)C2c3ccccc3NC(=O)c3ccccc32)CC1 (racemic) 800

Quick one: give measured IC50 for CN1CCC(CC(=O)C2c3ccccc3NC(=O)c3ccccc32)CC1 (racemic) 42

Quick one: give measured IC50 for CN1CCC(NC(=O)C2c3ccccc3NC(=O)c3ccccc32)CC1 (racemic) [Substance A] 400

* * *

For each record, write down the corresponding pIC50.
- Target Entity: muscarinic receptors, submandible (M3) (Rattus norvegicus, UniProt P08483)
- Sequence (P08483 whole entry): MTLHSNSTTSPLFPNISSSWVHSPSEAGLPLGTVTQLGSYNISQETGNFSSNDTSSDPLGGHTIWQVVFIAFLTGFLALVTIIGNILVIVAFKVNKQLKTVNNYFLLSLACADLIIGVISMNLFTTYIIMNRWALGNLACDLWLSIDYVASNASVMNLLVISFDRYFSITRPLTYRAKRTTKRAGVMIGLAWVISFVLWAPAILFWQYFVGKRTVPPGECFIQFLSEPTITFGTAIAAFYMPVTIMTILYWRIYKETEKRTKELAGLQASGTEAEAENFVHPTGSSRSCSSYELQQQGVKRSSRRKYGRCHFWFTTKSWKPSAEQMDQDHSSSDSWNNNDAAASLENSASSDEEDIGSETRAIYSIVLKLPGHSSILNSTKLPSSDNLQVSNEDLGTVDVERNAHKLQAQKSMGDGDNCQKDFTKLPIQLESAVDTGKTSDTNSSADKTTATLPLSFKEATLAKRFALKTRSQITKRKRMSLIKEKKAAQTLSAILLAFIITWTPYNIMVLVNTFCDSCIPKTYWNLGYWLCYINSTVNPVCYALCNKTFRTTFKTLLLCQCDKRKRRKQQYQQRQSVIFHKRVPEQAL
Expect pIC50 as a plain number equal to -log10 of the molar concentration.

Quick one: give measured pIC50 for CN1CCC(NC(=O)C2c3ccccc3NC(=O)c3ccccc32)CC1 (single isomer, unassigned; (+)) [Substance D] 7.30

Quick one: give measured pIC50 for CN1CCC(NC(=O)C2c3ccccc3NC(=O)c3ccccc32)CC1 (racemic) [Substance A] 7.15

Quick one: give measured pIC50 for CN1CCC(CC(=O)C2c3ccccc3NC(=O)c3ccccc32)CC1 (racemic) 7.89

Quick one: give measured pIC50 for CN1CCN(CC(=O)C2c3ccccc3NC(=O)c3ccccc32)CC1 (racemic) 7.00
